Tested on: c-Src
Assay Protocol: phosphorylation enrichment, bacterial display (enrichment ratio); higher = better substrate or ligand; peptides without Tyr show the background
Could you label it True if measured phosphorylation enrichment is 0.5 or higher, and False otherwise?

> print(dat)
                         item.sequence  class
 1          VYPATYHPDHW [EFCAB12_Y544]  False
 2      SKEPYYVHCIK [MYO1D_Y586_R588H]   True
 3             ERSMSYSDESR [SMG1_Y143]   True
 4      TWSPKYTLRSH [STRN3_Y474_N471S]  False
 5              RHLREYQDLLN [DES_Y388]  False
 6  SNPAFYVLEGV [INPPL1_Y987_N982S_YF]   True
 7       RPFFLYVAFHN [SGSH_Y174_D179N]  False
 8         FEDALYTVLHR [UNC13D_Y61_YF]   True
 9       DYYDLYGGKKF [PTPN11_Y66_E69K]   True
10             AKKKMYSRKTK [AGXT_Y231]  False
11           GVRFIYTIDGS [DCX_Y105_YF]   True
12      RVGVDYEGRGC [PLOD1_Y675_G678R]  False

====

Target System: Jak2 (UniProt O60674)
Sequence (O60674 whole entry, looked up): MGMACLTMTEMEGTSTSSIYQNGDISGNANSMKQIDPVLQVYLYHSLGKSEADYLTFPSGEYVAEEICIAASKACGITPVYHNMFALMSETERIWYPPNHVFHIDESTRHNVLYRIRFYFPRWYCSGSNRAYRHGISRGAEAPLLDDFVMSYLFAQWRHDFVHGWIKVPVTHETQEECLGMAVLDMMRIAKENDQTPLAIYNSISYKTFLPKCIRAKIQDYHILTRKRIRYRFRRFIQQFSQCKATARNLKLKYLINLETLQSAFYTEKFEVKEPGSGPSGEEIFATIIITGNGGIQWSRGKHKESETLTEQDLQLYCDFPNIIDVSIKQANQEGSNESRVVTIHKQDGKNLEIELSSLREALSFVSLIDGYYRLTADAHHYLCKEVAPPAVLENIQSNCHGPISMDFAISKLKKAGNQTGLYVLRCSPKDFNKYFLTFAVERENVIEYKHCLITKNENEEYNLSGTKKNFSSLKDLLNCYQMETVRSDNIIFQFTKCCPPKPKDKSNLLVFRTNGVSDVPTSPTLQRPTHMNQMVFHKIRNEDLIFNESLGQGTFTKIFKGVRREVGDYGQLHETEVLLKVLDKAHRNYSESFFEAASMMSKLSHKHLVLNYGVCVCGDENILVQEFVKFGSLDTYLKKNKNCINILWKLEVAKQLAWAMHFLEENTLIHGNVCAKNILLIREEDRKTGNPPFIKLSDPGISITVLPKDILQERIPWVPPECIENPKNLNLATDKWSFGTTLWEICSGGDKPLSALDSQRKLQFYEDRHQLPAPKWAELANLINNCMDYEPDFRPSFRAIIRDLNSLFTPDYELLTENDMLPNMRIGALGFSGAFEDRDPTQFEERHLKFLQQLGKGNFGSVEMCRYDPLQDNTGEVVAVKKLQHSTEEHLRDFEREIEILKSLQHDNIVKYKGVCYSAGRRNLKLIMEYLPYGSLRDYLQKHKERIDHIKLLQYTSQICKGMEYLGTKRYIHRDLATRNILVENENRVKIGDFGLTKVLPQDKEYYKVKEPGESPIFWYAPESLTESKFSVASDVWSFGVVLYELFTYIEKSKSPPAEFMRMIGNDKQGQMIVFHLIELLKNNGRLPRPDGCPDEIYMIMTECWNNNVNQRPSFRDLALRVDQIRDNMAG
Assay Protocol: phosphorylation enrichment, bacterial display (enrichment ratio); higher = better substrate or ligand; peptides without Tyr show the background
Could you label it criterion met if measured phosphorylation enrichment is 0.7 or higher, and criterion not met otherwise?

> print(dat)
                 item.sequence              class
1      NNTFLYQLVFD [EXO1_Y284]      criterion met
2    GRSTYYWPRPR [GAGE12J_Y10]  criterion not met
3  SSNLFYRWLTA [CNGA3_Y169_YF]      criterion met
4   KKHIPYREHKS [CSNK1G1_Y205]      criterion met

====

Target System: c-Src SH2;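 also: peptide library displayed on the E. coli surface as eCPX fusions, selected cells deep-sequenced, score is each peptide's frequency after selection divided by its frequency in the input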
Assay Protocol: SH2 binding enrichment of the phosphorylated peptide, bacterial display (enrichment ratio); higher = better substrate or ligand; peptides without Tyr show the background
SH2 binding enrichment listing for selected sequences.
Measurement Label: SH2 binding enrichment

> print(dat)
                          item.sequence  target.system  value.observed
 1  GLRFGYGGLGG [KRTAP20-2_Y15_V17G_YF]      c-Src SH2           0.593
 2   RFLTRYIFNRE [HLA-DQB1_Y62_V59L_YF]      c-Src SH2           0.593
 3    DGFTDYAEFAK [MCFD2_Y138_I136T_YF]      c-Src SH2           0.547
 4       KLIETCFSKNF [PLP1_Y50_Y50C_YF]      c-Src SH2           0.482
 5             GGQSVYHVHLH [HINT1_Y109]      c-Src SH2           0.897
 6      RFLERYIYNRQ [HLA-DPB1_Y57_E62Q]      c-Src SH2           0.699
 7       ILQSMYGCDVG [HLA-B_Y123_T118I]      c-Src SH2           0.402
 8       HFGCIYHGTLL [MET_Y1093_V1092I]      c-Src SH2            0.58
 9         CEAMEYPESKQ [BTK_Y511_L512P]      c-Src SH2            0.66
10         LTSVKYLLSAT [GSDMC_Y26_P23S]      c-Src SH2           0.679
11        SSMSDYNPLEK [MYOC_Y479_I477S]      c-Src SH2           0.525
12     EQKRYYNAMKK [SCN5A_Y1495_K1493R]      c-Src SH2            1.19
13        NPQKSYFILLF [WAS_Y83_R86L_YF]      c-Src SH2           0.573
14            HNELYYEEAEH [VANGL1_Y345]      c-Src SH2           0.798
15            GRSTYYWPRPR [GAGE12J_Y10]      c-Src SH2           0.419
16              ADIETYLLEKS [MYH7_Y266]      c-Src SH2           0.405
17               FPPISYLNAIS [MVD_Y276]      c-Src SH2           0.491
18          VFSTDYFRVGG [NTRK2_Y706_YF]      c-Src SH2           0.556
19         PLLTDYSPQLQ [OTC_Y345_S340P]      c-Src SH2           0.445
20          SLAARYFNWVS [FLT4_Y1230_YF]      c-Src SH2            1.15
21   VDASFCGGRGV [ANTXR2_Y381_Y381C_YF]      c-Src SH2           0.389
22   SNPAFYVLEGV [INPPL1_Y987_N982S_YF]      c-Src SH2           0.714
23     NQILPYIEELV [PPP2R1B_Y341_K343E]      c-Src SH2           0.725
24           CNRADYSKLAS [GNE_Y22_P27S]      c-Src SH2           0.938
25         PVGVLYEVKVY [PTS_Y128_K129E]      c-Src SH2           0.537
26            LSPNMYNSKLW [TARSL2_Y457]      c-Src SH2            0.51
27         EAGKVYLKAAM [CBFB_Y96_P100A]      c-Src SH2           0.462
28    KDHPDYKFQLR [SOX10_Y171_P175L_YF]      c-Src SH2           0.649
